Tested on: Helicobacter pylori standard strain ATCC 43504
ASSAY_PROCEDURE: Antibacterial potency test (MIC), Columbia agar medium, Pharmacological Test Example 1
Assay type: cell-based
ASSAY_CONDITIONS: ATCC43504, 72 h, ATCC 43504, 37° C., pH 7.0, 3 days, read-out: MIC
Each entry below carries its recorded MIC.
EXPERIMENTAL_READOUT: MIC

COMPOUND: CCCOc1ccnc(CSc2nc3ccccc3[nH]2)c1C [Reference Example 3]
OBSERVED_VALUE: 1 µg/mL
//
COMPOUND: CCCCCCCCOc1ccnc(CSc2nc3ccccc3[nH]2)c1C
OBSERVED_VALUE: 0.3 µg/mL
//
COMPOUND: CCCCCCCCCOc1ccnc(CSc2nc3ccccc3[nH]2)c1C [Reference Example 4]
OBSERVED_VALUE: 1 µg/mL
//
COMPOUND: CCCCCOc1ccnc(C[S+]([O-])c2nc3ccccc3[nH]2)c1C (racemic) [Reference Example 6]
OBSERVED_VALUE: 3 µg/mL
//
COMPOUND: CCCCCCOc1ccnc(CSc2nc3ccccc3[nH]2)c1C
OBSERVED_VALUE: 0.1 µg/mL
//
COMPOUND: CCCCCCCOc1ccnc(CSc2nc3ccccc3[nH]2)c1C
OBSERVED_VALUE: 0.1 µg/mL
//
COMPOUND: COc1ccnc(CSc2nc3ccccc3[nH]2)c1C [Reference Example 1]
OBSERVED_VALUE: 3 µg/mL
//
COMPOUND: CCCCCCCOc1ccnc(C[S+]([O-])c2nc3ccccc3[nH]2)c1C (racemic) [Reference Example 8]
OBSERVED_VALUE: 3 µg/mL
//
COMPOUND: CCOc1ccnc(CSc2nc3ccccc3[nH]2)c1C [Reference Example 2]
OBSERVED_VALUE: 1 µg/mL

* * *

Tested on: Helicobacter pylori bacteria (ATCC 43504)
ASSAY_PROCEDURE: Antiulcer action and bacteria eradicating action in Helicobacter pylori-infected Mongolian gerbils
Type: in vivo
ASSAY_CONDITIONS: Helicobacter pylori, ATCC43504, 336 h; 30 mg/kg, two times a day for two weeks; read-out: Eradication rate (%)
EXPERIMENTAL_READOUT: responders at 30 mg/kg (%)

CHEMICAL_SMILES: CC[C@H]1OC(=O)[C@H](C)[C@@H](O[C@H]2C[C@@](C)(OC)[C@@H](O)[C@H](C)O2)[C@H](C)[C@@H](O[C@@H]2O[C@H](C)C[C@H](N(C)C)[C@H]2O)[C@](C)(OC)C[C@@H](C)C(=O)[C@H](C)[C@@H](O)[C@]1(C)O
UNIT_OF_MEASUREMENT: %
OBSERVED_VALUE: 20

CHEMICAL_SMILES: CC(C)COc1ccnc(CSc2nc3ccccc3[nH]2)c1
UNIT_OF_MEASUREMENT: %
OBSERVED_VALUE: 0

CHEMICAL_SMILES: CCCCCCCOc1ccnc(CSc2nc3ccccc3[nH]2)c1C
UNIT_OF_MEASUREMENT: %
OBSERVED_VALUE: 100

CHEMICAL_SMILES: Cc1c(OCC(C)C)ccnc1CSc1nc2ccccc2[nH]1
UNIT_OF_MEASUREMENT: %
OBSERVED_VALUE: 0

CHEMICAL_SMILES: CCCCCOc1ccnc(CSc2nc3ccccc3[nH]2)c1C
UNIT_OF_MEASUREMENT: %
OBSERVED_VALUE: 100

CHEMICAL_SMILES: CCCCCCOc1ccnc(CSc2nc3ccccc3[nH]2)c1C
UNIT_OF_MEASUREMENT: %
OBSERVED_VALUE: 100
